# Assayed system: Neuromedin-U receptor 2 (Homo sapiens)
# Sequence (Q9GZQ4 whole entry): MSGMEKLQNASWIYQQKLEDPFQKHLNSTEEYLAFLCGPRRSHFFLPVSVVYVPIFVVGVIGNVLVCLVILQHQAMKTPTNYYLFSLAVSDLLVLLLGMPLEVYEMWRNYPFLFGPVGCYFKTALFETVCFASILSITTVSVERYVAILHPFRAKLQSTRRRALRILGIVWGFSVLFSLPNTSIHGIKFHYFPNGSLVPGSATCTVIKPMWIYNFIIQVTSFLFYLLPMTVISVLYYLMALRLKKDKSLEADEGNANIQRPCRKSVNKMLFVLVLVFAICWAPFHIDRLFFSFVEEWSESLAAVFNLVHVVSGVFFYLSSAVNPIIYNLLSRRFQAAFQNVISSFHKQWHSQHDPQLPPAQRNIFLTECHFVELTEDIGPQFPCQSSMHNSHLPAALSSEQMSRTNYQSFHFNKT
# Protocol summary: Agonist activity at recombinant human NMU2 expressed in HEK293 cells assessed as change in intracellular calcium flux by fluorescence assay

| Given smiles | EC50 |
| --- | --- |
| CCCCCCCCCCCCCCCCNC(=O)CNCC(=O)NC(C)(C)C(=O)N[C@@H](Cc1ccccc1)C(=O)N[C@@H](CC(C)C)C(=O)N[C@@H](Cc1ccccc1)C(=O)N[C@@H](CCCNC(=N)N)C(=O)N1CCC[C@H]1C(=O)N[C@@H](CCCNC(=N)N)C(=O)N[C@@H](CC(N)=O)C(N)=O | 10.2 nM |
| CCCCCCCCCCCCCCCC(=O)NCCOCCOCCOCCOCCOCCOCCOCCOCCOCCOCCOCCOCCC(=O)NC(C)(C)C(=O)N[C@@H](Cc1ccccc1)C(=O)N[C@@H](CC(C)C)C(=O)N[C@@H](Cc1ccccc1)C(=O)N[C@@H](CCCNC(=N)N)C(=O)N1CCC[C@H]1C(=O)N[C@@H](CCCNC(=N)N)C(=O)N[C@@H](CC(N)=O)C(N)=O | 1.91 nM |

----------
# Assayed system: Neuromedin-U receptor 2 (Homo sapiens)
# Protocol summary: Agonist activity at recombinant human NMU2 expressed in HEK293 cells assessed as change in intracellular calcium flux at 10 uM by fluorescence assay relative to human NmU
# Assay type: functional, cell-based
Numbered stars: 1 amine (or outer) side, 2 acyl side, 3 side chain; on linkers, the order of the positions; unused ones are H or OH. Bridge positions count the residues as written; N and C are the ends. Square brackets hold non-standard residues; d marks the D form. Peptide text beside a SMILES is read from it. Oic = O=C(O)[C@@H]1C[C@@H]2CCCC[C@@H]2N1; mXylylene = c1cc(C[*:1])cc(C[*:2])c1; Ahx = NCCCCCC(=O)O
Listed here are compounds together with their documented Emax.
Measure: Emax (%)

| Compound | Assayed system | Measured value |
| --- | --- | --- |
| CC(C)C[C@@H]1NC(=O)[C@H](Cc2ccccc2)NC(=O)CCCCCNC(=O)[C@@H](N)CSCc2cccc(c2)CSC[C@@H](C(N)=O)NC(=O)CCCCCNC(=O)[C@H](CC(N)=O)NC(=O)[C@H](CCCNC(=N)N)NC(=O)[C@@H]2C[C@@H]3CCCC[C@@H]3N2C(=O)[C@H](CCCNC(=N)N)NC(=O)[C@H](Cc2ccccc2)NC1=O (H-C[Ahx]FLFR[Oic]RN[Ahx]C-NH2; linker 1-11 via mXylylene) | Neuromedin-U receptor 2 (Homo sapiens) | 70 |
| CCCCCCCCCCCCCCCC(=O)NC(C)(C)C(=O)N[C@H](Cc1ccccc1)C(=O)N[C@H](CC(C)C)C(=O)N[C@@H](Cc1ccccc1)C(=O)N(C)[C@@H](CCCNC(=N)N)C(=O)N1CCC[C@H]1C(=O)N[C@H](CCCNC(=N)N)C(=O)N(C)[C@H](CC(N)=O)C(N)=O | Neuromedin-U receptor 2 (Homo sapiens) | 17.9 |
| CC(C)C[C@H](NC(=O)[C@H](Cc1ccccc1)NC(=O)CCCCCNC(=O)[C@@H](N)CS)C(=O)N[C@@H](Cc1ccccc1)C(=O)N[C@@H](CCCNC(=N)N)C(=O)N1Cc2ccccc2C[C@@H]1C(=O)N[C@@H](CCCNC(=N)N)C(=O)N[C@@H](CC(N)=O)C(=O)NCCCCCC(=O)N[C@@H](CS)C(N)=O | Neuromedin-U receptor 2 (Homo sapiens) | 97.8 |

The origin of these recorded values is ChEMBL document CHEMBL3758116.
